Cited source: paper PMC5219024

- System: HL-60 (human promyelocytic leukemia)
- experiment notes: Antiproliferative assay in vitro (MTT), HL-60
- Format: cell-based
- recorded conditions: Homo sapiens; HL-60 cancer cell line; 96 h exposure; read-out: Cytotoxic activity IC50, HL-60
value kind: IC50 (µg/mL)
Just the number please, in µg/mL, no unit attached.

QUERY: I'd like to know its IC50. The compound in question is C=C(C)[C@@H]1CC[C@]2(COC(=O)C#CC)CC[C@]3(C)C(CCC4[C@@]5(C)CCC(=O)C(C)(C)C5CC[C@]43C)C12 (stereo partly drawn)
RESULT: 29.5

QUERY: I'd like to know its IC50. The compound in question is C#CCOC(=O)OC[C@]12CC[C@@H](C(=C)C)C1C1CCC3[C@@]4(C)CC[C@H](O)C(C)(C)C4CC[C@@]3(C)[C@]1(C)CC2 (stereo partly drawn)
RESULT: 3.7

QUERY: I'd like to know its IC50. The compound in question is C=C(C)[C@@H]1CC[C@]2(COC(=O)C#CC3CC3)CC[C@]3(C)C(CCC4[C@@]5(C)CCC(=O)C(C)(C)C5CC[C@]43C)C12 (stereo partly drawn)
RESULT: 33.9
